- System: KARPAS-231 (B-Cell Non-Hodgkin's Lymphoma);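 note: after 72 h of two-drug dosing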
- experiment.summary: Bliss excess, mean over the matrix (fraction); higher = more synergy
measurement.label: Bliss excess
Answer with a bare number; do not write a unit.

Q: Quick one: Bliss excess for COc1nnc2ccc(N3CCC(c4ccc(OCCN5CCN(C)C(=O)[C@H]5C)cc4)CC3)nn12 [AZD5153] + CCN(CCO)CCCOc1ccc2c(Nc3cc(CC(=O)Nc4cccc(F)c4)[nH]n3)ncnc2c1 [AZD2811] (first compound max 1 µM, 7x7, partner max 1 µM) ?
Ans: -0.203

Q: If you can, please state the reported Bliss excess value of NC1(C(=O)N[C@@H](CCO)c2ccc(Cl)cc2)CCN(c2ncnc3[nH]ccc23)CC1 [Capivasertib] + CC(C)n1c(=O)n(C)c2cnc3cc(F)c(-c4ccc(OCCCN5CCCCC5)nc4)cc3c21 [AZD1390] (first compound max 10 µM, 7x7, partner max 0.3 µM) .
Ans: -0.0035

Q: // Bliss excess lookup, key: CN(CCO)CC[C@H](CSc1ccccc1)Nc1ccc(S(=O)(=O)NC(=O)c2ccc(N3CCC([C@@H](O)c4ccccc4-c4ccc(Cl)cc4)CC3)cc2)cc1S(=O)(=O)C(F)(F)F [AZD4320] + Cc1cc2ncnn2cc1Nc1ncc2c(n1)n(C1CCOCC1)c(=O)n2C [AZD7648] (first compound max 1 µM, 7x7, partner max 10 µM)
Ans: 0.036

The reported measurements were obtained from the supplement of paper PMC11061612.
